# System: A549 human lung cancer cell line
# EXPERIMENT DESCRIPTION: MTT cell viability / antiproliferative assay in A549 cells
# Type: cell-based
# EXPERIMENTAL SETUP: A549, MTT, 72 h incubation, triplicate; read-out: IC50 (72 h)
PROPERTY MEASURED: pIC50
Quick note: pIC50 values are minus log10 of concentrations in mol/L.

Any idea what pIC50 was measured for O=C1[O][Pt]2([NH][C@@H]3CCCC[C@H]3[NH]2)[O]C1=O [Ox-Pt, oxaliplatin, reference compound] ? 6.30
